ASSAY NAME: BSK_3C_Vis: BioMAP Diversity Plus: 3C Assay for Morphology Visualization (AID 2283025);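 note: fitted both ways so gain or loss versus DMSO counts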
CONDITION: primary human endothelial cells (HUVEC)
Method: BSK_3C is a cell-based, multiplexed-readout assay that uses umbilical vein endothelium, a human vascular primary cell, with measurements taken at 24 hours after chemical dosing in a 96-well plate.BSK_3C_Vis is an assay component measured in the BSK_3C assay. It measures NA related to cell morphology using light microscopy technology.Data from the assay component BSK_3C_Vis was analyzed into 1 assay endpoint. […]
The source made the active and inactive calls. Rule for the calls: active = hit-call score of the fitted dose curve at least 0.9, where 1 is the maximum; inactive = score below 0.9.
Answer with one of the outcomes T (active), F (inactive)

CCCC1COC(Cn2cncn2)(c2ccc(Cl)cc2Cl)O1 (stereo not given)	F
CCNc1nc(Cl)nc(NC(C)C)n1	F
CC(C)(C)c1ccc(CSc2cnn(C(C)(C)C)c(=O)c2Cl)cc1	T
CCCCC(CC)COC(=O)c1ccccc1C(=O)OCC(CC)CCCC (stereo not given)	T
O=C(O)COc1nc(Cl)c(Cl)cc1Cl	F

Input line: Tell me the assay call for COP(=S)(OC)Oc1nc(Cl)c(Cl)cc1Cl please.
Output line: T

Input line: I would be grateful if you could indicate the recorded call for Cc1cc(Cl)ccc1OCC(=O)O .
Output line: F

Input line: Look up the recorded call for Cc1ccc(-c2c(Cl)nc(C#N)n2S(=O)(=O)N(C)C)cc1 in this test.
Output line: T

Input line: What classification did COc1ccc(C(c2ccc(OC)cc2)C(Cl)(Cl)Cl)cc1 end up with in this test?
Output line: T

Input line: Each molecule tested received a call. Report the one for C#CCOS(=O)OC1CCCCC1Oc1ccc(C(C)(C)C)cc1 (stereo not given) .
Output line: T

====

Read-out: NAD(P)H dehydrogenase [quinone] 1 (NQO1), NQO1 (gene 1728)
ASSAY NAME: LTEA_HepaRG_NQO1: Life Technologies and Expression Analysis (LTEA) Assay for NAD(P)H dehydrogenase [quinone] 1 (NQO1) using HepaRG (AID 2283526)
CONDITION: mRNA level, 48 h; actives raise or lower the signal
The source made the active and inactive calls. How the source made its calls: active means hit-call score of the fitted dose curve at least 0.9, where 1 is the maximum; inactive means score below 0.9.
READOUT LABEL: outcome

CCCCNC(=O)OCC#CI	inactive
COc1nc(NC(C)C)nc(NC(C)C)n1	inactive
C=CCC1=C(C)[C@@H](OC(=O)[C@@H]2[C@@H](C=C(C)C)C2(C)C)CC1=O	inactive

====

ASSAY NAME: BSK_hDFCGF_Proliferation: Cell Proliferation Assessment in the BioMAP Diversity Plus: hDFCGF Assay (AID 2283059);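 note: curves fitted for both rise and fall of signal versus DMSO baseline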
CONDITION: primary human foreskin fibroblasts
Procedure: BSK_hDFCGF is a cell-based, multiplexed-readout assay that uses foreskin fibroblast, a human skin primary cell, with measurements taken at 24 hours after chemical dosing in a 96-well plate.BSK_hDFCGF_Proliferation is an assay component measured in the BSK_hDFCGF assay. It measures […] related to cell proliferation using Sulforhodamine staining technology.Data from the assay component BSK_hDFCGF_Proliferation was analyzed into 1 assay endpoint. […]
Active and inactive are the calls of the source. How the source made its calls: active means hit-call score of the fitted dose curve at least 0.9, where 1 is the maximum; inactive means score below 0.9.
Bench note: report the call from active, inactive

See these solved cases before continuing.
CNC(=S)S	active
COP(N)(=O)SC (centres undefined)	inactive
CCOP(=S)(OCC)SCn1c(=O)oc2cc(Cl)ccc21	active
CC(Oc1ccc(Cl)cc1Cl)C(=O)O (centres undefined)	inactive
Fc1ccc(Oc2ccnc3cc(Cl)cc(Cl)c23)cc1	active

Input line: Identify the outcome logged in this assay for the compound shown: CCCC1COC(Cn2cncn2)(c2ccc(Cl)cc2Cl)O1 (centres undefined)
Output line: active

Input line: Field: outcome | Entry: N#Cc1cc(Br)c(O)c(Br)c1
Output line: inactive

Input line: What was the test verdict on COC(=O)c1ccccc1C(=O)OC ?
Output line: inactive

Input line: Name the outcome recorded for OC(c1ccc(Cl)cc1)(c1cncnc1)c1ccccc1Cl (centres undefined) in the assay.
Output line: active

====

Read-out: Cyclin D1 (CCND1), CCND1 (gene 595)
ASSAY NAME: LTEA_HepaRG_CCND1: Life Technologies and Expression Analysis (LTEA) Assay for Cyclin D1 (CCND1) using HepaRG (AID 2283451)
CONDITION: mRNA level, 48 h; actives raise or lower the signal
Activity calls are given as the source filed them. How the source made its calls: active means hit-call score of the fitted dose curve at least 0.9, where 1 is the maximum; inactive means score below 0.9.
Lab note: assign the record to one of true = active, false = inactive

Study these solved cases before continuing.
CCCCC(CC)COC(=O)c1ccccc1C(=O)OCC(CC)CCCC (stereo not drawn)	false
COC(=O)N(OC)c1ccccc1COc1ccn(-c2ccc(Cl)cc2)n1	false
CON(C)C(=O)Nc1ccc(Cl)c(Cl)c1	true

Input line: Hey, what did the test say about CNC(=S)S ?
Output line: false

Input line: What did the test return for N#CC(CCc1ccc(Cl)cc1)(Cn1cncn1)c1ccccc1 (stereo not drawn) ?
Output line: true

Input line: Which result was noted for this compound in the test: C=CCC1=C(C)[C@@H](OC(=O)[C@@H]2[C@@H](C=C(C)C)C2(C)C)CC1=O
Output line: false

Input line: Hello, I am checking results. What call was entered for COc1ccc(C(c2ccc(OC)cc2)C(Cl)(Cl)Cl)cc1 ?
Output line: false

Input line: Hello, I am checking results. What call was entered for CC(Oc1ccc(Cl)cc1Cl)C(=O)O (stereo not drawn) ?
Output line: false

Input line: What call does the record list for CCCCOC(=O)c1ccccc1C(=O)OCCCC ?
Output line: false

Input line: Per the records of this test, what outcome belongs to CC1=C(C(=O)Nc2ccccc2)SCCO1 ?
Output line: true

Input line: Write down the call the test reported for this compound. Item: O=C(O)c1nc(Cl)ccc1Cl
Output line: false

Input line: Which result was noted for this compound in the test: CNC(=O)ON=CC(C)(C)SC
Output line: false

Input line: Call for entry CC1COC(Cn2cncn2)(c2ccc(Oc3ccc(Cl)cc3)cc2Cl)O1 (stereo not drawn) :
Output line: true

====

Read-out: Caspase-3 (Homo sapiens) (UniProt P42574)
Sequence (P42574 whole entry, looked up): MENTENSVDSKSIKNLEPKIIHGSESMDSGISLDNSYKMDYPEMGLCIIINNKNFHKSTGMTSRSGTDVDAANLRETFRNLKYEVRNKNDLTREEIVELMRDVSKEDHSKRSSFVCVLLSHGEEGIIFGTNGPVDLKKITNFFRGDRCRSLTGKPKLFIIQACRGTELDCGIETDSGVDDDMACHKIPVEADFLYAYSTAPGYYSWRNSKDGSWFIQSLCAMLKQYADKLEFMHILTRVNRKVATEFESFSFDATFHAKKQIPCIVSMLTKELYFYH
ASSAY NAME: LTEA_HepaRG_CASP3: Life Technologies and Expression Analysis (LTEA) Assay for cysteine-aspartic acid protease (CASP3) using HepaRG (AID 2283477)
CONDITION: mRNA level, 48 h; actives raise or lower the signal
Active and inactive are the calls of the source. The calls were made as follows: active = hit-call score of the fitted dose curve at least 0.9, where 1 is the maximum; inactive = score below 0.9.
I would appreciate it if you answered using one of these outcomes: active, inactive

Known results for compounds:
COc1nc(NC(C)C)nc(NC(C)C)n1	inactive
N#Cc1cc(Br)c(O)c(Br)c1	active
CCON=C(CC)C1=C(O)CC(c2c(C)cc(C)cc2C)CC1=O (stereo unspecified)	inactive
CO/C=C(/C(=O)OC)c1ccccc1Oc1cc(Oc2ccccc2C#N)ncn1	inactive
COC(=O)C=C(C)OP(=O)(OC)OC	inactive

Okay, now this compound:
Input line: Identify the outcome logged in this assay for the compound shown: O=C(O)COc1nc(Cl)c(Cl)cc1Cl
Output line: inactive

====

Read-out: JUN Transcription Factor, JUN (gene 3725)
ASSAY NAME: LTEA_HepaRG_JUN: Life Technologies and Expression Analysis (LTEA) Assay for JUN Transcription Factor using HepaRG (AID 2283513)
CONDITION: mRNA level, 48 h; actives raise or lower the signal
The source made the active and inactive calls. The calls were made as follows: active = hit-call score of the fitted dose curve at least 0.9, where 1 is the maximum; inactive = score below 0.9.
The categories you may choose from are TRUE = active, FALSE = inactive

Input line: I would be grateful if you could indicate the recorded call for COC(=O)N(OC)c1ccccc1COc1ccn(-c2ccc(Cl)cc2)n1 .
Output line: FALSE

Input line: Can you look up the reported call for COC(=O)C=C(C)OP(=O)(OC)OC for me?
Output line: FALSE

Input line: In this assay, the call recorded for CC1=C(C(=O)Nc2ccccc2)SCCO1 was what?
Output line: FALSE

Input line: Outcome? CCOc1cc(Oc2ccc(C(F)(F)F)cc2Cl)ccc1[N+](=O)[O-]
Output line: FALSE

====

TEST TARGET: Peroxisome proliferator-activated receptor gamma (Homo sapiens)
ASSAY NAME: ATG_PPARg_TRANS: Attagene TRANS-FACTORIAL HepG2 Assay for human Peroxisome Proliferator-activated Receptor-gamma (PPARg) (AID 2283007)
Inconclusive results are not listed. Active and inactive are the calls of the source. Rule for the calls: active = hit-call score of the fitted dose curve at least 0.9, where 1 is the maximum; inconclusive = response in the unintended direction; inactive = score below 0.9.
Write down one outcome, taken from active, inactive

CCOP(=S)(OCC)SCn1c(=O)oc2cc(Cl)ccc21	active
CCOC(=O)C(Cl)Cc1cc(-n2nc(C)n(C(F)F)c2=O)c(F)cc1Cl (stereo not given)	active
COP(N)(=O)SC (stereo not given)	inactive
CCOc1cc(Oc2ccc(C(F)(F)F)cc2Cl)ccc1[N+](=O)[O-]	active

Switching to the query record.
Input line: Entry O=C(Nc1ccccc1)Nc1ccnc(Cl)c1 : call = ?
Output line: active

====

ASSAY NAME: APR_HepG2_MitoticArrest_24hr: Apredica 24-hour HepG2 Assay for Mitotic Arrest (AID 2282910)
CONDITION: high-content imaging, actives raise or lower the signal
The source made the active and inactive calls. The calls were made as follows: active = hit-call score of the fitted dose curve at least 0.9, where 1 is the maximum; inactive = score below 0.9.
READOUT LABEL: AC50

Would you please look over these solved cases?
CC1=C(C(=O)Nc2ccccc2)SCCO1	inactive
CNC(=S)S	85.2 µM (active)
N#CC(CCc1ccc(Cl)cc1)(Cn1cncn1)c1ccccc1 (stereo not drawn)	106 µM (active)
Cc1c(F)c(F)c(COC(=O)C2C(/C=C(\Cl)C(F)(F)F)C2(C)C)c(F)c1F (stereo not drawn)	inactive
Cc1cc(Cl)ccc1OCC(=O)O	inactive

Kindly give each listed record's AC50.
1. CCCCC(CC)COC(=O)c1ccccc1C(=O)OCC(CC)CCCC (stereo not drawn)
2. COc1nc(C)nc(NC(=O)NS(=O)(=O)c2ccccc2Cl)n1
3. CCCC1COC(Cn2cncn2)(c2ccc(Cl)cc2Cl)O1 (stereo not drawn)
4. COP(N)(=O)SC (stereo not drawn)
5. CCc1nn(C)c(C(=O)NCc2ccc(C(C)(C)C)cc2)c1Cl
6. CCCCNC(=O)n1c(NC(=O)OC)nc2ccccc21

Output line:
inactive
inactive
inactive
inactive
inactive
inactive

Answer for every listed entry: what is its AC50? The entries follow.
1. COP(=S)(OC)Oc1nc(Cl)c(Cl)cc1Cl
2. CCOc1cc(Oc2ccc(C(F)(F)F)cc2Cl)ccc1[N+](=O)[O-]

Output line:
1. inactive
2. inactive
